# credit: paper PMC3048208

test: Plasma pharmacokinetics of SB939 in patients, LC–MS/MS, non-compartmental
Type: in vivo, human
run_parameters: human, plasma, oral, 50 mg, Day 1; dose level 5, 50 mg; read-out: Tmax, mean
assay_endpoint: Tmax (h)

In [3]: df
Out[3]:
                                        smi  assay_endpoint  recorded_value
0  CCCCc1nc2cc(/C=C/C(=O)NO)ccc2n1CCN(CC)CC            Tmax             1.6

---

test: Plasma pharmacokinetics of SB939 in patients, LC–MS/MS, non-compartmental
Assay type: in vivo, human
run_parameters: human, plasma, oral, 50 mg, Day 3 or 5; dose level 5, 50 mg
assay_endpoint: Cmax (ng/mL)

>>> print(df.to_string())
                                        smi  result_unit  recorded_value
0  CCCCc1nc2cc(/C=C/C(=O)NO)ccc2n1CCN(CC)CC        ng/mL             101

---

test: Plasma pharmacokinetics of SB939 in patients, LC–MS/MS, non-compartmental
Assay type: in vivo, human
run_parameters: human, plasma, oral, 50 mg, Day 3 or 5; dose level 5, 50 mg; read-out: T1/2, mean (converted)
Experimental: Pre-dose PK assessment was also performed on day 15 of treatment. Whole blood was collected into a 3-ml blood tubes containing K2EDTA anti-coagulant and centrifuged at 1000 g for 10 min at 4°C. Plasma was kept as an aliquot and frozen at −80°C. […] Pharmacokinetic parameters were calculated by a non-compartmental method using WinNonlin 4.0 software (Pharsight Corporation, Mountain View, CA, USA). […]
assay_endpoint: half-life (h)

>>> print(df.to_string())
                                        smi  assay_endpoint  result_unit  recorded_value
0  CCCCc1nc2cc(/C=C/C(=O)NO)ccc2n1CCN(CC)CC       half-life            h             8.9

---

test: Plasma pharmacokinetics of SB939 in patients, LC–MS/MS, non-compartmental
Format: in vivo, human
run_parameters: human, plasma, oral, 10 mg, Day 1; dose level 2, 10 mg; read-out: Tmax, mean
assay_endpoint: Tmax

>>> print(df.to_string())
                                        smi  assay_endpoint  recorded_value
0  CCCCc1nc2cc(/C=C/C(=O)NO)ccc2n1CCN(CC)CC            Tmax           1.1 h

---

test: Plasma pharmacokinetics of SB939 in patients, LC–MS/MS, non-compartmental
Assay type: in vivo, human
run_parameters: human, plasma, oral, 70 mg, Day 3 or 5; dose level 6, 70 mg; read-out: T1/2, mean (converted)
assay_endpoint: half-life (h)

In [3]: df
Out[3]:
                                   molecule  recorded_value
0  CCCCc1nc2cc(/C=C/C(=O)NO)ccc2n1CCN(CC)CC [SB939]             6.4

---

test: Plasma pharmacokinetics of SB939 in patients, LC–MS/MS, non-compartmental
Type: in vivo, human
run_parameters: human, plasma, oral, 20 mg, Day 3 or 5; dose level 3, 20 mg
assay_endpoint: Cmax (ng/mL)

In [3]: df
Out[3]:
                                   compound  result_unit  recorded_value
0  CCCCc1nc2cc(/C=C/C(=O)NO)ccc2n1CCN(CC)CC [SB939]        ng/mL            51.3

---

test: Plasma pharmacokinetics of SB939 in patients, LC–MS/MS, non-compartmental
Assay type: in vivo, human
run_parameters: human, plasma, oral, 90 mg, Day 3 or 5; dose level 7, 90 mg
assay_endpoint: Cmax (ng/mL)

                                        smi  recorded_value
0  CCCCc1nc2cc(/C=C/C(=O)NO)ccc2n1CCN(CC)CC             116

---

test: Plasma pharmacokinetics of SB939 in patients, LC–MS/MS, non-compartmental
Format: in vivo, human
run_parameters: human, plasma, oral, 10 mg, Day 3 or 5; dose level 2, 10 mg
assay_endpoint: Cmax

>>> print(df.to_string())
                                        smi  assay_endpoint  recorded_value
0  CCCCc1nc2cc(/C=C/C(=O)NO)ccc2n1CCN(CC)CC            Cmax    0.0233 µg/mL

---

test: Plasma pharmacokinetics of SB939 in patients, LC–MS/MS, non-compartmental
Format: in vivo, human
run_parameters: human, plasma, oral, 90 mg, Day 1; dose level 7, 90 mg; read-out: T1/2, mean (converted)
assay_endpoint: half-life (h)

In [3]: df
Out[3]:
                                        smi  recorded_value
0  CCCCc1nc2cc(/C=C/C(=O)NO)ccc2n1CCN(CC)CC             6.4

---

test: Plasma pharmacokinetics of SB939 in patients, LC–MS/MS, non-compartmental
Assay type: in vivo, human
run_parameters: human, plasma, oral, 30 mg, Day 3 or 5; dose level 4, 30 mg; read-out: Tmax, mean
assay_endpoint: Tmax

>>> df
                                        smi  recorded_value
0  CCCCc1nc2cc(/C=C/C(=O)NO)ccc2n1CCN(CC)CC           1.6 h
